Biological target: T1, hGITR.mFc (human)
T1 construct: soluble dimeric construct with mouse Fc; also called dimeric human GITR
T1 chain: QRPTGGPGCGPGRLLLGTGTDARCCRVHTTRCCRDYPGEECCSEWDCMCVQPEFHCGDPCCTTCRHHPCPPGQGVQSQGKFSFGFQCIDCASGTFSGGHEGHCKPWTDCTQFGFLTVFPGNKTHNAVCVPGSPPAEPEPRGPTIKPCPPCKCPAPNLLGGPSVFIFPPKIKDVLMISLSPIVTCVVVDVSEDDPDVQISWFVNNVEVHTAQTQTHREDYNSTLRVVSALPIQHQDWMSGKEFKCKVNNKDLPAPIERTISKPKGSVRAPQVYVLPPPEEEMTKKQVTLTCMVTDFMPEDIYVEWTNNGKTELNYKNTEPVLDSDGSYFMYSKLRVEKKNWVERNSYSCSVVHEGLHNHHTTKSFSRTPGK
Test: SPR 37C, mAb capture
parameter.measured: t½

INSERT INTO assay_data (binder, result) VALUES
  ('H4H14528P (antibody, human IgG4, V domains shown, human IgG4 (H4H)) VH: QVQLVESGGGVVQPGRSLRISCAASGFTFNNYGFHWVRQAPGRGLEWVAVIWYSGSNKYYGDSVKGRFTISRDNSKNILYLQMNSLRAEDTAIYYCARFPFSSSWLLDYWGQGTLVTVSS VL: DIQLTQSPSFLSASVGDRVTFTCWASQGISDYLAWYQQKPGKAPKLLIYAASALQSGVPSRFSGSGSGTEFTLTVSSLQPEDFATYYCQQLNSYPFTFGPGTKVDIK', '6.5 min'),
  ('H1H14491P (antibody, human IgG1, V domains shown, human IgG1 (H1H)) VH: QVQLVESGGGVVQPGRSLRLSCVASGFTFSDYGMHWVRQAPGKGLEWVAVIWYEGSNKYYADSVTGRFTISRDNSKNTLFLQMNSLKAEDTAEYYCAKDGGQLAYQYYYGMDVWGQGTTVTVSS VL: AIQMTQSPSSLSASVGDRVTLTCRASQGIRNDLGWYQQKPGKAPKSLIYAASNLQSGVPSRFSGSGSGTDFTLTISSLQPEDSATYYCLQDYNYPRTFGQGTKVEIK', '68.3 min'),
  ('H1H14520P (antibody, human IgG1, V domains shown, human IgG1 (H1H)) VH: QVQLVESGGGVVQPGRSLRLSCAASGFTFSSFGMHWVRQAPGKGLEWVAVISYDGRNRYYADSVKGRFTISRDNSKNTLYLQMNSLSAEDTAMFYCAKDGFGNSFDYWGQGTLVTVSS VL: DVVMTQSPLSLPVTLGQPASISCRSSQSLLYSDGNTYLTWFQQRPGQSPRRLIYKVSNRDSGVPDRFSGSGSGTDFTLTISRVEAEDVGIYYCMQGTHWPWTFGQGTKVEIK', '19.8 min'),
  ('H4H14475P (antibody, human IgG4, V domains shown, human IgG4 (H4H)) VH: QVQLVESGGGVVQPGRSLRLSCAASGTIFSTHGMHWVRQAPGKGLEWVAVISYDGNKKYYAGSVKGRFTISRDNSKNTLYLQMNDVRSEDTAVYHCTTDITGITDYWGQGTLVTVSS VL: DIQMTQSPSSLSASVGDRVTITCRASQGIGNDLGWYQQKLGKAPKRLIYAASSLESGVPSRFSGSGSGTEFILTISSLQAEDFATYYCLQHNGFPTFGQGTKVEIK', '8.5 min'),
  ('H4H14476P (antibody, human IgG4, V domains shown, human IgG4 (H4H)) VH: QVQLVESGGGVVQPGRSLRLSCAASGFTFSNYGIHWVRQPPGQGLEWVAVIWYAGSNKFYADSVKGRFTISRDNSKNSAYLQMNSLRAEDTAVYYCARAPLGYYYYGMDVWGQGTTVTVSS VL: DIQMTQSPSSLSASVGDRVTITCRASQGIRNDLGWYQQKPGKAPKRLIYDASSLESGVPSRFSGSGSGTEFTLTISSLQPEDFATYYCLQHNSYPWTFGQGTKVEIK', '42.9 min');
